experimentDescription: HoxA9-arrested leukemia cell differentiation promoters – flow cytometry, MLPCN library, primary screen (AID 624256)
appliedConditions: ER-HoxA9 myeloid progenitors, lysozyme-GFP differentiation, at 10 µM
Screen size: about 360,000 compounds; about 3,700 (1%) were called active. Roughly 2% stayed inconclusive and do not appear here.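 How the source made its calls: active means normalized GFP-positive differentiation at or above the plate's own cutoff, the solvent-only control mean plus 3 SD; inconclusive means no clear call, values can overlap the other calls; inactive means the rest.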 The list comes from a sample in which actives are over-represented; it also holds close analogues and randomly drawn compounds.
The reply should be one of these categories: 1 = active, -1 = inactive

I would be grateful if you could indicate the recorded call for CC1(C(=O)Nc2ccc3c(c2)OCCO3)CSCC(=O)N1CCOc1ccccc1 (stereo unspecified) .
-1

I would be grateful if you could indicate the recorded call for `COc1ccc(CNC(=O)[C@H](Cc2c[nH]c3ccccc23)NC(C)=O)cc1OC` .
-1

I would be grateful if you could indicate the recorded call for `CN(CCO)C(=O)c1nc[nH]c1C(=O)N(C)Cc1ccccc1` .
-1

I would be grateful if you could indicate the recorded call for `CN1OC[C@@H]2CN(C(=O)C(C)(C)C)[C@H](c3ccc(-n4ccnc4)cc3)C[C@@H]21` .
-1

I would be grateful if you could indicate the recorded call for `COc1cccc(NC(=O)[C@H](Cc2c[nH]c3ccccc23)NC(=O)[C@@H]2Cc3ccccc3CN2)c1` .
1

I would be grateful if you could indicate the recorded call for CC1(C(=O)NS(=O)(=O)c2cccc(F)c2)CCN1C(=O)Cc1ccc(Cl)cc1Cl (stereo unspecified) .
-1

* * *

experimentDescription: HoxA9-arrested leukemia cell differentiation promoters – flow cytometry, MLPCN library, primary screen (AID 624256);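 on GFP+ MAC1+ double positive: cells exposed to compound for four days before flow analysis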
appliedConditions: ER-HoxA9 myeloid progenitors, lysozyme-GFP differentiation, at 10 µM; measured here: differentiation confirmed by MAC1 staining, stronger effect = higher value
Among all 360,000 compounds or so, about 3,700 (1%) were called active. Another 2% or so got no clear call; they are omitted. The entries come from a sample that favours actives as a whole.
parameterMeasured: GFP+ MAC1+ double positive (%)
API: value field is a number in %; no unit string.

Just so you know, measured GFP+ MAC1+ double positive for O=C(NC(c1ccc(-c2ccccc2)cc1)c1cnccn1)C1CCN(CCOc2ccc(Cl)cc2Cl)CC1 (stereo not given) came out at 1.7

Just so you know, measured GFP+ MAC1+ double positive for `c1ccc2c(c1)CSc1sccc1C2=C1CCNCC1` came out at 4.3

Just so you know, measured GFP+ MAC1+ double positive for `Cc1ccc(NS(=O)(=O)c2cc3c(cc2Br)NC(=O)CO3)cc1C` came out at 2.1

Just so you know, measured GFP+ MAC1+ double positive for `CCc1ccc([C@@H]2CC(=O)[C@@H]3CN(S(=O)(=O)c4ccc(C)cc4)[C@H](c4ccc(Cl)cc4)C[C@@H]3N2S(=O)(=O)c2ccc(C)cc2)cc1` came out at 1.2

Just so you know, measured GFP+ MAC1+ double positive for `CC(=O)N1CCN(Cc2cc(=O)oc3cc(C)ccc23)CC1` came out at 1.6

* * *

experimentDescription: HoxA9-arrested leukemia cell differentiation promoters – flow cytometry, MLPCN library, primary screen (AID 624256)
appliedConditions: ER-HoxA9 myeloid progenitors, lysozyme-GFP differentiation, at 10 µM
The campaign covered roughly 360,000 compounds. About 3,700 (1%) were called active. Roughly 2% stayed inconclusive and do not appear here.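 Rule for the calls: active = normalized GFP-positive differentiation at or above the plate's own cutoff, the solvent-only control mean plus 3 SD; inconclusive = no clear call, values can overlap the other calls; inactive = the rest.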 Many of the other results were omitted from the sample, so actives are more common in it than they were.
The reply should be one of these categories: active, inactive

I would be grateful if you could indicate the recorded call for `COc1ccc(S(=O)(=O)N2CCOCC2)cc1C(=O)Nc1nc2ccccc2s1` .
active

I would be grateful if you could indicate the recorded call for `CCSc1nc(-c2ccc(OC)cc2)cc(-c2ccc(OC)cc2)c1C#N` .
inactive

I would be grateful if you could indicate the recorded call for `CN(CC(=O)Nc1cccc(F)c1)C(=O)CC1CCCC1` .
inactive

I would be grateful if you could indicate the recorded call for `COc1ccc(/C=C/C(=O)c2c(O)cc(OC)cc2OC)cc1` .
inactive

I would be grateful if you could indicate the recorded call for `Cc1scc(C(=O)NNC(=S)NCc2ccccc2)c1C` .
inactive

I would be grateful if you could indicate the recorded call for `COc1ccc(S(=O)(=O)N2CCOCC2)cc1C(=O)NC1CCCCC1` .
inactive

I would be grateful if you could indicate the recorded call for Cc1cccc(C)c1NC(=O)C(c1ccc(C(F)(F)F)cc1)n1c(=O)c(-c2ccco2)nc2ccccc21 (configuration not stated) .
inactive

I would be grateful if you could indicate the recorded call for Cc1cccc(C)c1NC(=O)C(c1cccc(F)c1)N1CCN(C)CC1 (configuration not stated) .
inactive

I would be grateful if you could indicate the recorded call for `CN(C)c1nccc(NCc2ccccc2)c1C#N` .
inactive

I would be grateful if you could indicate the recorded call for Cc1cc2oc3ccc(NCCC4CCCN4C)cc3c(=O)c2cc1C (configuration not stated) .
active

I would be grateful if you could indicate the recorded call for O=C(NCc1ccccc1Cl)C(=O)NCC1CCCN1S(=O)(=O)c1cccs1 (configuration not stated) .
inactive

I would be grateful if you could indicate the recorded call for COCCCn1cc(CN2CC(N(C)C)CS2(=O)=O)nn1 (configuration not stated) .
inactive

* * *

experimentDescription: HoxA9-arrested leukemia cell differentiation promoters – flow cytometry, MLPCN library, primary screen (AID 624256)
appliedConditions: ER-HoxA9 myeloid progenitors, lysozyme-GFP differentiation, at 10 µM
About 3,700 (1%) of roughly 360,000 compounds were called active. About 2% were inconclusive and are not listed.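 Rule for the calls: active = normalized GFP-positive differentiation at or above the plate's own cutoff, the solvent-only control mean plus 3 SD; inconclusive = no clear call, values can overlap the other calls; inactive = the rest.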 This is one part of a sample in which actives are shown more often than they occur.
The reply should be one of these categories: active, inactive

I would be grateful if you could indicate the recorded call for O=C(c1ccccc1)N1CCC(CC2CC(c3ccc(Cl)cc3)=NO2)(C(=O)NCC2CCCCC2)CC1 (centres undefined) .
inactive

I would be grateful if you could indicate the recorded call for `COC(=O)[C@]12CCCCC=C1N(Cc1ccco1)C(=O)[C@H](CC(=O)NCCCCc1ccccc1)C2` .
inactive

I would be grateful if you could indicate the recorded call for `Cc1c(-c2ccccc2)cn2c1-c1ccc(C)n1CC2` .
active

I would be grateful if you could indicate the recorded call for `COC(=O)[C@]12CCCCC=C1N(Cc1ccccc1)C(=O)[C@H](CC(=O)NCc1ccc(C)o1)C2` .
inactive

I would be grateful if you could indicate the recorded call for `N#CCC(=O)NC(=O)NCC1CC1` .
inactive

I would be grateful if you could indicate the recorded call for `CN1CCN(CCC(=O)N/N=C/C=C2\N(C)c3ccccc3C2(C)C)CC1` .
active

I would be grateful if you could indicate the recorded call for `O=C(NCC1CCCCC1)NCC1CCCCC1` .
active

I would be grateful if you could indicate the recorded call for O=S1(=O)CC(N2CCN(CCO)CC2)CN1Cc1cn(Cc2cccc(Cl)c2)nn1 (centres undefined) .
inactive

I would be grateful if you could indicate the recorded call for `COC(=O)[C@@]12C[C@@H](CC(=O)NCc3cccc(C(F)(F)F)c3)C(=O)N(Cc3ccco3)C1=CCC(C)(C)C2` .
inactive

* * *

experimentDescription: HoxA9-arrested leukemia cell differentiation promoters – flow cytometry, MLPCN library, primary screen (AID 624256);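 on GFP+ MAC1+ double positive: cells exposed to compound for four days before flow analysis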
appliedConditions: ER-HoxA9 myeloid progenitors, lysozyme-GFP differentiation, at 10 µM; measured here: differentiation confirmed by MAC1 staining, stronger effect = higher value
Out of some 360,000 compounds screened, about 3,700 (1%) were called active. About 2% were inconclusive and are not listed. The full list was thinned out, with actives kept by preference.
# binarize GFP+ MAC1+ double positive: threshold 0.7% inclusive, high side 1.0, low side 0.0

API: above_or_equal(metric=GFP+ MAC1+ double positive, cutoff=0.7%) for item `O=C(NCc1ccc(F)cc1F)[C@@H]1CCCN1C(=O)[C@@H]1CCCN1C(=O)c1cccc(Cl)c1`
0.0

API: above_or_equal(metric=GFP+ MAC1+ double positive, cutoff=0.7%) for item `CCCCCn1nnnc1-c1nc2cc3ccccc3cc2[nH]c1=O`
1.0

API: above_or_equal(metric=GFP+ MAC1+ double positive, cutoff=0.7%) for item `CCc1nc2c(OCCOc3ccccc3)cccn2c1N(C)C(=O)c1cccs1`
0.0

API: above_or_equal(metric=GFP+ MAC1+ double positive, cutoff=0.7%) for item `Cc1cc(NC(=O)CSc2nc3c(cc2C#N)CCCCC3)no1`
0.0

API: above_or_equal(metric=GFP+ MAC1+ double positive, cutoff=0.7%) for item O=C(CN1CCOC1=O)N1CCCC(Nc2ccc(F)c(F)c2)C1 (stereo not given)
1.0

API: above_or_equal(metric=GFP+ MAC1+ double positive, cutoff=0.7%) for item Cc1cc2c(cc1C)N1C(=O)c3cc4ccccc4cc3NC(=O)C1C(=O)N2 (stereo not given)
1.0

API: above_or_equal(metric=GFP+ MAC1+ double positive, cutoff=0.7%) for item CSCCC(NS(=O)(=O)c1ccccc1F)C(=O)N1CC=C(c2ccccc2)CC1 (stereo not given)
1.0

API: above_or_equal(metric=GFP+ MAC1+ double positive, cutoff=0.7%) for item `Cn1c(=O)c2cc(NC(=O)NCCc3cccs3)ccc2n1Cc1cccc(C(F)(F)F)c1`
1.0

API: above_or_equal(metric=GFP+ MAC1+ double positive, cutoff=0.7%) for item `CC(=O)Nc1cccc(Nc2ccc(C#N)cc2)c1`
0.0

API: above_or_equal(metric=GFP+ MAC1+ double positive, cutoff=0.7%) for item `COc1cccc(CNc2nc(NCc3cccs3)nc3ccsc23)c1`
1.0

API: above_or_equal(metric=GFP+ MAC1+ double positive, cutoff=0.7%) for item `CN[C@H]1C[C@H]2c3cc(Oc4ccccc4C)ccc3CCN2C(=O)[C@H]1[C@H](C)O`
0.0

API: above_or_equal(metric=GFP+ MAC1+ double positive, cutoff=0.7%) for item `CCOc1ccc(CC(=O)NCCS(=O)(=O)N2CCN(c3ccccc3)CC2)cc1`
0.0

API: above_or_equal(metric=GFP+ MAC1+ double positive, cutoff=0.7%) for item O=C(NCCN1CCOCC1)c1ccccc1N1C(=O)[C@@H]2Cc3c([nH]c4ccccc34)C(c3cccc(Cl)c3)N2C1=O (stereo not given in full)
1.0

API: above_or_equal(metric=GFP+ MAC1+ double positive, cutoff=0.7%) for item `Cc1ccc(S(=O)(=O)NCCSC(C)(C)C)cc1`
1.0

API: above_or_equal(metric=GFP+ MAC1+ double positive, cutoff=0.7%) for item `CCCc1nc(NCc2ccc3c(c2)OCO3)c2nnn(Cc3ccccc3Cl)c2n1`
1.0

API: above_or_equal(metric=GFP+ MAC1+ double positive, cutoff=0.7%) for item `COc1ccccc1N1CCN(S(=O)(=O)CCNC(=O)c2ccc(OC(C)C)cc2)CC1`
1.0
